assay: Metabolic stability in mouse liver microsomes assessed as compound turnover after 30 mins; type: ADME, Microsome; conditions: read-out: Drug metabolism
Catalogue of metabolised at 0.5 h values
A number alone suffices; assume %.

Consider the following illustrative entries.
Cc1nn(C)c2cc(Nc3ncc(C4CC4)c(NCCCNC(=O)C4CCC4)n3)ccc12 : 41
O=C(NCCCNc1nc(Nc2ccc(N3CCOCC3)nc2)ncc1C1CC1)C1CCC1 : 92
O=C(NCCCNc1nc(Nc2cnn(CCN3CCOCC3)c2)ncc1C1CC1)C1CCC1 : 68
O=C(NCCCNc1nc(Nc2cnn(C3CCOCC3)c2)ncc1C1CC1)C1CCC1 : 33

For O=C(NCCCNc1nc(Nc2cccc(-c3cnco3)c2)ncc1C1CC1)C1CCC1 , what is its reported metabolised at 0.5 h? 34

And then O=C(NCCCNc1nc(Nc2cnn(C3CC3)c2)ncc1C1CC1)C1CCC1 , what is it? 24

Next entry: O=C(NCCCNc1nc(Nc2cnn(C3CCC3)c2)ncc1C1CC1)C1CCC1 61

Let us now turn to O=C(NCCCNc1nc(Nc2cccc(F)c2)ncc1C1CC1)C1CCC1 74

Now try O=C(NCCCNc1nc(Nc2cnn(C3CCCC3)c2)ncc1C1CC1)C1CCC1 . 59

And CCn1cc(Nc2ncc(C3CC3)c(NCCCNC(=O)C3CCC3)n2)cn1 ? 54
